Measured values drawn from patent US20170174769A1 for this set.

- Subject of test: T1, extracellular domain of human KLB expressed with C-terminal HA and hexahistidine tags (human, UniProt Q86Z14 1-996)
- T1 construct: also called hKLB-HA-6His; hKLB-HA-6his
- T1 sequence: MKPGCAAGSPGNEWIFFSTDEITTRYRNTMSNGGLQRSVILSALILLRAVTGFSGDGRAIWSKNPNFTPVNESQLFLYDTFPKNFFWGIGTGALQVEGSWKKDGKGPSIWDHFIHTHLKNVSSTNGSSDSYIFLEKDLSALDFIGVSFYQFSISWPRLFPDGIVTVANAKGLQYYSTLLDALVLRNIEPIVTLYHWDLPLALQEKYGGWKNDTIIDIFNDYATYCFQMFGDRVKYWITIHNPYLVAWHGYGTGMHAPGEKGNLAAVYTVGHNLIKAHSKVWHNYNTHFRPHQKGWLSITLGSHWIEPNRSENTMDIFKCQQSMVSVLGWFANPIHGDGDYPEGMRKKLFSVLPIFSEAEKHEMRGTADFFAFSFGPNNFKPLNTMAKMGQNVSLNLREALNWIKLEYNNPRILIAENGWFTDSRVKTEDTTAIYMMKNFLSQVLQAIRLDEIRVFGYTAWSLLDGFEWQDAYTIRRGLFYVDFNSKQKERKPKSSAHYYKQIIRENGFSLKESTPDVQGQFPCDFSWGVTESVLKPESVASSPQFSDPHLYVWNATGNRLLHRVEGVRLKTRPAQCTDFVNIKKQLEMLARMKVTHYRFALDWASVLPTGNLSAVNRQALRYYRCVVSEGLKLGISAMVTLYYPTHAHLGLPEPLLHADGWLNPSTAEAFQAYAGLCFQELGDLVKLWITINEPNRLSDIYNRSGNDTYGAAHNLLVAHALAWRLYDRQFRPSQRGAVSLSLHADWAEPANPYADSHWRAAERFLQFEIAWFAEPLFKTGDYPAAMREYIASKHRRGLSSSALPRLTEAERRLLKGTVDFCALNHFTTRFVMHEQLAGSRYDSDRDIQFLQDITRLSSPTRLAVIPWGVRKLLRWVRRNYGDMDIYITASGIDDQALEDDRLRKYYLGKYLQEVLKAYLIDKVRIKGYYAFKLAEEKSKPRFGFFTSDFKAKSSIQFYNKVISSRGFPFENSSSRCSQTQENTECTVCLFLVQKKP
- Test protocol: SPR, mAb captured, 37 C
# koff listing for each entry below
// units = s⁻¹; emit number, no label

Solved cases (6 shown):
Q: Fill in the blank: the reported koff of H2aM8092N (antibody, V domains shown, mouse IgG2 Fc (H2aM prefix); also called H2M8092N) VH: QVQLQESGPGLVKPSETLSLTCTVSGGSISSYYWSWIRQPPGKGLDWIGHIYYSGTTYYNPSLKSRVSISLDTSKNQFSLKLSSVTAADTAVYYCARHLRGYSSGREFDYWGQGTLVTVSS VL: DIQMTQSPSSLSASVGGRVSLTCRASQSIFSYLNWYQQKPGKAPKLLIYAASNLQSGVPSRFSGSGSGTDFTLTISSLQPEDFATYSCQQSYNIPYTFGQGTKLEIK is ____.
A: 8e-05

Q: So what does the record say about koff for H4H8878P (antibody, V domains shown, human IgG4 Fc (H4H prefix)) VH: QVQLVESGGGVVQPGRSLRLSCAASGFTLNTYGMHWIRQTPGKGLEWVSLISYDETKEYYVDSVKGRFTISRDNSKNTLYLQMNSVRVEDTAVYYCAKPLTGSTDYYYGLDVWGQGTTVTVSS VL: DIQMTQSPSYVSASVGDRVIITCRASQDISSWLAWYQQKPGKAPKLLIYVTSSLESGVPSRFSGSGSGTDFTLTISGLQPEDFATYYCQQVKSFPPTFGPGTKVDIK ?
A: 0.000241

Q: Please give the measured koff for this binder: H4H8881P (antibody, V domains shown, human IgG4 Fc (H4H prefix)) VH: QVQLVQSGAEVKKPGASVKVSCKASGYTFTSYVIHWVRQAPGQRLEWMGWSNAANGDTKYSQEFQDRVTFTRDTSASTAYMELSSLRSEDMAVYYCARWNWNYGAFDIWGQGTMVTVSS VL: DIQMTQSPSSLSASVGDRVTITCQASQDINNYLHWYQQKSGKAPNLLIYDASILETGVPSRFSGSGSGTDFTFTISSLQPEDIATYYCQQYDNLPYTFGQGTKLEIK
A: 0.000463

Q: Name the recorded koff for H4H8837P (antibody, V domains shown, human IgG4 Fc (H4H prefix)) VH: QVQLVESGGGVVQPGRSLRLSCAASGFTFNSYAMHWVRQAPGMGLEWVAVISSDGSNKYYADSVRGRFTVSRDNSKNTLYLQMNSLRSEDTAVYYCAKDGRGYSSFSHFGMDVWGQGTTVTVSS VL: DIQMTQSPSTLSASVGDRVTITCRASQSIGSWLAWYQQKPGKAPKLLIYKTSSLESGVPSRFSGSGSGTEFTLTISSLQPDDFASYYCQQYNSYSFGQGTKVEIK .
A: 0.000128

Q: Using the record for H2aM8109N (antibody, V domains shown, mouse IgG2 Fc (H2aM prefix)) VH: QVQVVESGGGVVQPGRSLRLSCAASGFTFSSYGLHWVRQAPGKGLEWVAVIWHDGSHKYYADSVKGRFTISRDNSKNTLYLQMNSLRAEDTAVYYCARDGIPVAEDYYFYGMDVWGQGTTVTVSS VL: DIQMTQSPSSLSASVGDRVTITCRASQGIRNDLGWYQQKPGKAPKRLIYAASSLQSGVPSRFSGSGSGTEFTLTISSLQPEDFAIYYCLQHNSLTFGGGTKVEIK , report its koff.
A: 0.00131

Q: Bench note: what koff did H4H8880P (antibody, V domains shown, human IgG4 Fc (H4H prefix)) VH: EVQLVESGGGVVQPGGSLRLSCAASGFTFSLYAMSWVRQAPGKGLEWVSAISGSAHGAYYADSVKGRFTISRDNSKNSLYLQMNSLRAEDTAIYYCAKDLVIAVAGTFDYWGQGTLVTVSS VL: DIQMTQSPSSLSASVGDRVTITCRASQIISTYLNWYQQKPGKAPKILIYTASSLKSGVPSRFSGSGSGTDFTLTISSLQPEDFATYYCQQTYSSPRFTFGPGTKVDIK show?
A: 0.000526

Further cases:
Q: Look up koff: H2aM8093N (antibody, V domains shown, mouse IgG2 Fc (H2aM prefix)) VH: QVQLVQSGAEVKRPGSSVKVSCKASGDTFSTYAISWVRQAPGQGLEWMGGIIPVFGTTNYAQKFQDRVTITTDESTRTAYMELSSLRSEDTAVYYCAGIAGPDYWGQGTLVTVSS VL: DIQMTQSPSSLSASVGDRVTITCRASQGIRNYLAWFQQKPGKAPKSLIYLATSLQSGVPSKFSGSGSGTDFTLTISSLQPEDFATYYCQQYYSYPWTFGQGTKVEIK
A: 0.00018
